Hi there, I'd appreciate the recorded AD (antidiuretic effect) for every entry that follows.
experiment: Antidiuretic effect (AD); parameters: unit not given here
Where a SMILES comes first, the peptide text is derived from it. Bridges are numbered along the chain shown (N, C = ends). [ ]: non-standard residue; d: D form. Orn = NCCC[C@H](N)C(=O)O; Mpa = O=C(O)CCS
Answers are plain numbers.

Some molecules with recorded AD (antidiuretic effect):
CC[C@H](C)[C@@H]1NC(=O)[C@@H](Cc2c[nH]c3ccccc23)NC(=O)CCSSC[C@@H](C(=O)N2CCC[C@H]2C(=O)N[C@@H](CCCN)C(=O)NCC(N)=O)NC(=O)[C@H](CC(N)=O)NC(=O)[C@H](C(C)C)NC1=O [Example 14] ([Mpa][dW]IVNCP[Orn]G-NH2; disulfide 1-6) : 0.03
CC[C@H](C)[C@@H]1NC(=O)[C@@H](Cc2c[nH]c3ccccc23)NC(=O)CCSSC[C@@H](C(=O)N2CCC[C@H]2C(=O)N[C@@H](CCCNC(=N)N)C(=O)NCC(N)=O)NC(=O)[C@H](CC(N)=O)NC(=O)[C@H](C(C)C)NC1=O [Example 8] ([Mpa][dW]IVNCPRG-NH2; disulfide 1-6) : 0.1
CC[C@H](C)[C@@H]1NC(=O)[C@@H](Cc2c[nH]c3ccccc23)NC(=O)CCSSC[C@@H](C(=O)N2CCC[C@H]2C(=O)N[C@@H](CCCN)C(=O)NCC(N)=O)NC(=O)[C@H](CC(N)=O)NC(=O)[C@H]([C@@H](C)O)NC1=O [Example 15] ([Mpa][dW]ITNCP[Orn]G-NH2; disulfide 1-6) : 0.1
CC[C@H](C)[C@@H]1NC(=O)[C@@H](Cc2c[nH]c3ccccc23)NC(=O)CCSSC[C@@H](C(=O)N2CCC[C@H]2C(=O)N[C@H](CCCNC(=N)N)C(=O)NCC(N)=O)NC(=O)[C@H](CC(N)=O)NC(=O)[C@H]([C@@H](C)O)NC1=O [Example 12] ([Mpa][dW]ITNCP[dR]G-NH2; disulfide 1-6) : 0.1

Here is the next item to consider.
For the molecule shown here, CC[C@H](C)[C@@H]1NC(=O)[C@@H](Cc2ccc(O)cc2)NC(=O)CCSSC[C@@H](C(=O)N2CCC[C@H]2C(=O)N[C@@H](CCCN)C(=O)NCC(N)=O)NC(=O)[C@H](CC(N)=O)NC(=O)[C@H](C(C)C)NC1=O [Example 13] ([Mpa][dY]IVNCP[Orn]G-NH2; disulfide 1-6) , give the reported AD (antidiuretic effect).
1.2

###

Provide the reported Uterus in vivo, compared with Antocin of each item.
test system: rat uterus in vivo; assay: In vivo inhibition of oxytocin-induced uterus contractions in rats, compared with Antocin; details: anaesthetized rats, oxytocin infusion i.v., antagonist 0.8-8.0 μg/100 g i.v.; Antocin given the value 1
Where a SMILES comes first, the peptide text is derived from it. Bridges are numbered along the chain shown (N, C = ends). [ ]: non-standard residue; d: D form. Orn = NCCC[C@H](N)C(=O)O; Mpa = O=C(O)CCS
One number for each entry.

Answered cases to consult:
CC[C@H](C)[C@@H]1NC(=O)[C@@H](Cc2c[nH]c3ccccc23)NC(=O)CCSSC[C@@H](C(=O)N2CCC[C@H]2C(=O)N[C@H](CCCNC(=N)N)C(=O)NCC(N)=O)NC(=O)[C@H](CC(N)=O)NC(=O)[C@H]([C@@H](C)O)NC1=O [Example 12] ([Mpa][dW]ITNCP[dR]G-NH2; disulfide 1-6) : 6.3
CC[C@H](C)[C@@H]1NC(=O)[C@@H](Cc2c[nH]c3ccccc23)NC(=O)CCSSC[C@@H](C(=O)N2CCC[C@H]2C(=O)N[C@@H](CCCN)C(=O)NCC(N)=O)NC(=O)[C@H](CC(N)=O)NC(=O)[C@H]([C@@H](C)O)NC1=O [Example 15] ([Mpa][dW]ITNCP[Orn]G-NH2; disulfide 1-6) : 7.8
CC[C@H](C)[C@@H]1NC(=O)[C@@H](Cc2c[nH]c3ccccc23)NC(=O)CCSSC[C@@H](C(=O)N2CCC[C@H]2C(=O)N[C@@H](CCCN)C(=O)NCC(N)=O)NC(=O)[C@H](CC(N)=O)NC(=O)[C@H](C(C)C)NC1=O [Example 14] ([Mpa][dW]IVNCP[Orn]G-NH2; disulfide 1-6) : 17.9

Batch of 3 compounds: report Uterus in vivo, compared with Antocin for each.
1. CCOc1ccc(C[C@H]2NC(=O)CCSSC[C@@H](C(=O)N3CCC[C@H]3C(=O)N[C@@H](CCCN)C(=O)NCC(N)=O)NC(=O)[C@H](CC(N)=O)NC(=O)[C@H]([C@@H](C)O)NC(=O)[C@H]([C@@H](C)CC)NC2=O)cc1 [Antocin, 1-desamino-(2-0-ethyltyrosine)-oxytocin, reference compound] ([Mpa][dY](Et)ITNCP[Orn]G-NH2; disulfide 1-6)
2. CC[C@H](C)[C@@H]1NC(=O)[C@@H](Cc2ccc(O)cc2)NC(=O)CCSSC[C@@H](C(=O)N2CCC[C@H]2C(=O)N[C@@H](CCCN)C(=O)NCC(N)=O)NC(=O)[C@H](CC(N)=O)NC(=O)[C@H](C(C)C)NC1=O [Example 13] ([Mpa][dY]IVNCP[Orn]G-NH2; disulfide 1-6)
3. CC[C@H](C)[C@@H]1NC(=O)[C@@H](Cc2c[nH]c3ccccc23)NC(=O)CCSSC[C@@H](C(=O)N2CCC[C@H]2C(=O)N[C@@H](CCCNC(=N)N)C(=O)NCC(N)=O)NC(=O)[C@H](CC(N)=O)NC(=O)[C@H](C(C)C)NC1=O [Example 8] ([Mpa][dW]IVNCPRG-NH2; disulfide 1-6)

1. 1
2. 4.4
3. 11

Reference for the values: patent US4504469A
